Recorded values, source PubChem BioAssay.

Molecular target: Epidermal growth factor receptor (Homo sapiens) (UniProt P00533)
Sequence (P00533 whole entry, looked up): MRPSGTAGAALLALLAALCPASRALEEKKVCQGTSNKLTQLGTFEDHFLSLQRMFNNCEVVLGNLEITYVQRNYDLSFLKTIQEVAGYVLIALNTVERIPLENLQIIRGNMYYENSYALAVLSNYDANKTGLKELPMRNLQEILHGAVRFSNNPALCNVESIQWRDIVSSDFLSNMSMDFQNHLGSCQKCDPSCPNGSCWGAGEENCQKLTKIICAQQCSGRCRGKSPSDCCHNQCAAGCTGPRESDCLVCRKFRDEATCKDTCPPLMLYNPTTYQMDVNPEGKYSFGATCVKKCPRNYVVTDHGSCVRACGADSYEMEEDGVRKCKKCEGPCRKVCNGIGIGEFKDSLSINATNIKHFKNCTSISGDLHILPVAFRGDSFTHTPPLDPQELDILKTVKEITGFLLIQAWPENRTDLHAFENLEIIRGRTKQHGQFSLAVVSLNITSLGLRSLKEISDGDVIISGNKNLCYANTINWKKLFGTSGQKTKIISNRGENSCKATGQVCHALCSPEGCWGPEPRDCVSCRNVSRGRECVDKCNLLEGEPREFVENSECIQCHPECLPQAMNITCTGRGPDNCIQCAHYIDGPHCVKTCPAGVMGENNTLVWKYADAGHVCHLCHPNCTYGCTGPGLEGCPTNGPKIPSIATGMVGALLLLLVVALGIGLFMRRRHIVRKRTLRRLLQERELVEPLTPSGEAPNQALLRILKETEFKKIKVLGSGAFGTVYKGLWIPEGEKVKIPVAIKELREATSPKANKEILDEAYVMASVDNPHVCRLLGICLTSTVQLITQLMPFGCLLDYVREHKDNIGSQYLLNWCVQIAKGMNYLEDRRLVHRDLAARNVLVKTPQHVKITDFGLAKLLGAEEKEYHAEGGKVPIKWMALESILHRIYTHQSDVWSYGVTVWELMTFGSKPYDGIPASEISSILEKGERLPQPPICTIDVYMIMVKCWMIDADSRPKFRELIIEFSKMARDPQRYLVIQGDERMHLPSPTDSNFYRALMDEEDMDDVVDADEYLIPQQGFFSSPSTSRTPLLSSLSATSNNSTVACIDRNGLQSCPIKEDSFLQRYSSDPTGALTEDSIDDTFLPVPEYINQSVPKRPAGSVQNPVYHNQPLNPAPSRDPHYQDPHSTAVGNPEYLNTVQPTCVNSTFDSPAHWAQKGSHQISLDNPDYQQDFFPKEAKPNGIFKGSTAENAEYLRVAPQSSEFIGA
Assay: EGFR binders on small-molecule microarrays, primary screen, biochemical, small-molecule microarray, 635 nm fluorescence (AID 1104);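 further: score merges 667 nm emission intensity with spot signal to noise over triplicate slides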
Settings: EGFR binding, higher = more signal
So I've got a bunch of compounds here, and I need their composite z-score values.
One number for each entry.

Quick batch: composite z-score for everything below.
1. CC(C)[C@@H](C(=O)O)n1cc(-c2ccccc2)nn1
2. C=C(CC1([C@@H](NP(=O)(c2ccccc2)c2ccccc2)[C@H]2C[C@@H]2CCN(C(=O)OCC)S(=O)(=O)c2ccc(C)cc2)CC1)c1ccccc1
3. CCOC(=O)C[C@H]1[C@H](OC(=O)c2ccc(-c3ccccc3)cc2)[C@@H](NC(=O)CC(C)C)c2cc(OCCCO)ccc2N1C(=O)Cc1ccc(OC)cc1
4. COC(=O)[C@@]1(Cc2ccc(OC)cc2)[C@H]2c3cc(C(=O)N(C)C)n(Cc4ccsc4Br)c3C[C@H]2CN1C(=O)c1ccccc1

OUT:
0.262
0.0577
-0.263
0.374

---

Target: Torsin-1A (Homo sapiens) (UniProt O14656)
Sequence (O14656 whole entry, looked up): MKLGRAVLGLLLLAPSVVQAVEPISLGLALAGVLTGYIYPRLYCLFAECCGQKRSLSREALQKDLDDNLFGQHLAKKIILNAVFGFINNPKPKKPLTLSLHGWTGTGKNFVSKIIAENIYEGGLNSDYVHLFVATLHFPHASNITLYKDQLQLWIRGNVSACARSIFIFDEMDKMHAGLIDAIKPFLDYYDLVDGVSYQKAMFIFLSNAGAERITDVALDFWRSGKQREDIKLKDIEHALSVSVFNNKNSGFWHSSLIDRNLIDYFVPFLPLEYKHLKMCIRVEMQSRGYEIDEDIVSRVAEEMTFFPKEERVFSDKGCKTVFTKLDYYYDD
Experiment: small-molecule binders of mutant TOR1A in lysate, primary screen, cell lysate, small-molecule microarray, COS7 lysate, 635/667 nm fluorescence (AID 1150);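 further: score pools 667 nm emission and signal to noise measuring lysate protein binding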
Details: COS7 hTOR1A mutant lysate, 635 nm fluorescence, higher = more signal
measurement_label: composite z-score
Answers are plain numbers.

C=CCC(OC(C)=O)[C@@H]1[C@@H](N(Cc2cccc3ccccc23)C(=O)c2cccc3ccccc23)c2cc(OCCCO)ccc2N1C(=O)Cc1ccc2ccccc2c1 (stereo not given in full)	-0.736

Quick batch: composite z-score for everything below.
1. CCCC=C(CCC)[C@@H](NC(=O)c1ccco1)c1ccc(C(=O)OC)cc1
2. CN(C)C(=O)[C@]1(Cc2ccccc2CN=[N+]=[N-])N=C(c2ccc(OCCCO)cc2)O[C@@H]1c1ccccc1N=[N+]=[N-]
3. CC(C)CNC(=O)[C@@H]1c2ccccc2C(=O)N(C2Cc3ccccc3C2)[C@H]1c1ccc(CO)cc1
4. NC(=O)NCC#Cc1ccc2c(c1)[C@]1(C(=O)N2)[C@H](C(=O)N2CCCCCCC2)[C@H]2C(=O)O[C@H](c3ccccc3)[C@H](c3ccccc3)N2[C@@H]1c1ccc(O)cc1

OUT:
0.918
0.25
0.0877
0.676

---

So I've got a bunch of compounds here, and I need their composite z-score values.
Biological target: Pro-neuregulin-1, membrane-bound isoform (Homo sapiens) (UniProt Q02297)
Sequence (Q02297 whole entry, looked up, canonical isoform): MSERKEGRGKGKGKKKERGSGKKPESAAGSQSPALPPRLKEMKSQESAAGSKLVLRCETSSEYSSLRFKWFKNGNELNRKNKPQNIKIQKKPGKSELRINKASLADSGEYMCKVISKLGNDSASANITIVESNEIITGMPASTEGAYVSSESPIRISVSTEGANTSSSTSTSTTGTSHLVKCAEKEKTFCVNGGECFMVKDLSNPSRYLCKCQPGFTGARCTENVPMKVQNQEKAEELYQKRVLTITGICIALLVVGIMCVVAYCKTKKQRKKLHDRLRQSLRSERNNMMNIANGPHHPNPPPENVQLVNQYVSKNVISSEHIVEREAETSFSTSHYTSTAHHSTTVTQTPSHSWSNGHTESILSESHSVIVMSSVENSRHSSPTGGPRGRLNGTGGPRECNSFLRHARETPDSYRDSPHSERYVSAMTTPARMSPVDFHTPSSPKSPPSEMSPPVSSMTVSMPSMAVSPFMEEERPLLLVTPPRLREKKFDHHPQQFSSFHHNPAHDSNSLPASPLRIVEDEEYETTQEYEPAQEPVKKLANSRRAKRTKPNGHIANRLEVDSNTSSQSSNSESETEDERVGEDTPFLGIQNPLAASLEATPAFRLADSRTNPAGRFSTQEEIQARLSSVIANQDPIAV
Experiment: NRG1 binders on small-molecule microarrays, primary screen, psychiatric disease protein project, biochemical, small-molecule microarray, fluorescence 635/667 (AID 1075);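 further: score combines 667 nm spot fluorescence with signal to noise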
Settings: NRG1 binding, 635 nm fluorescence, higher = more signal
Give bare numbers.

Look over these answered cases.
Cc1c(-c2ccc(-c3ccc(Cl)c(Cl)c3)o2)nc(-c2ccccc2)c2c1CO[Si]2(C(C)C)C(C)C	0.568
CC#CCO[Si](C#CCCCCCC)(C(C)C)C(C)C	-0.353
CC(C)C[C@H]1NC(=O)[C@@H](C)NC(=O)[C@@]23C(=O)N[C@@H](Cc4ccccc4)C2[C@H](C)[C@@]2(C)O[C@H]2C3/C=C/C/C=C\CNC1=O (some centres undefined)	0.483

Continue with the next compound.
IN: Which composite z-score is reported for this compound? C=CCC(OC(C)=O)[C@@H]1[C@@H](N(Cc2ccc(-c3ccccc3)cc2)C(=O)c2ccc(C)cc2)c2cc(OCCCO)ccc2N1C(=O)c1ccc2ccccc2c1 (some centres undefined)
OUT: -0.138

---

So I've got a bunch of molecules here, and I need their composite z-score values.
Target: Dickkopf-related protein 1 (Homo sapiens) (UniProt O94907)
Sequence (O94907 whole entry, looked up): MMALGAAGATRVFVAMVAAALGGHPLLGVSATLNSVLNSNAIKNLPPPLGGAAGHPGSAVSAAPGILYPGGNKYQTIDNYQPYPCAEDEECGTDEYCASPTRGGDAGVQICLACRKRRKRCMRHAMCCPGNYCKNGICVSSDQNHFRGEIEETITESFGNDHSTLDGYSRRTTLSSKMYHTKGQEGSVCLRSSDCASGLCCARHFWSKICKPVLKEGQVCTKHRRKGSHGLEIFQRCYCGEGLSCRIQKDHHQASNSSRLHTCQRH
Assay: DKK1 binders on small-molecule microarrays, primary screen, biochemical, small-molecule microarray, 635 nm fluorescence scan (AID 1106);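 further: score merges emission near 667 nm with signal to noise over three replicate slides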
Conditions: DKK1 binding, higher = more signal
One number for each entry.

CC(C)C(=C=CC[C@@H](O)c1ccccc1OCCO)C[C@@H](O)c1cc(Cl)cc(Cl)c1O	0.741

Quick batch: composite z-score for everything below.
1. O=C1O[C@@H](c2ccccc2)[C@@H](c2ccccc2)N2[C@@H](c3ccc(O)cc3)[C@]3(C(=O)Nc4ccc(C#CC5=CCCCC5)cc43)[C@@H](C(=O)N3CCCCCCC3)[C@H]12
2. COc1ccccc1CN1C(=O)c2ccccc2[C@@H](C(=O)NCCCN(C)C)[C@@H]1c1ccc(CO)cc1
3. C=CCC(OC(C)=O)[C@@H]1[C@@H](N(Cc2ccc(-c3cccc(C(F)(F)F)c3)o2)C(=O)Cc2ccc(OC)cc2)c2cc(OCCCO)ccc2N1C(=O)c1ccc2ccccc2n1 (stereo not given in full)
4. COc1ccc(NN2C(C(O)c3cc(C(F)(F)F)cc(C(F)(F)F)c3)C=CC3C(=O)N(C4CCCCC4)C(=O)C32)cc1 (stereo not given)
5. C=C(CCCC)/C(=C/C[C@H](OC(C)=O)c1cccc(OCCO)c1)c1cc(C(=O)OC)ccc1OC
6. COc1ccc([Si](C)(C)[C@H]2[C@H](CCO)O[C@@]3(C(=O)N(Cc4ccc(N5CCOC5=O)cc4)c4ccccc43)[C@@H]2C)cc1
7. CN(C)CCCNC(=O)[C@@]1(Cc2ccccc2I)c2ccccc2C(=O)N(Cc2ccccc2)[C@H]1c1ccc(CO)cc1
8. CCCCC(=C=CC[C@@H](O)c1ccc(OCCO)cc1)C[C@@H](O)c1ccccn1

OUT:
1. 0.485
2. 0.271
3. 0.062
4. -0.292
5. -0.344
6. -0.524
7. 0.707
8. 0.414

Quick batch: composite z-score for everything below.
1. COc1cc2c(cc1O)C(c1ccc(CN3CCCC3)cc1)N(Cc1cccc(OC(F)(F)F)c1)CC2 (stereo not given)
2. CC(C)C(=C=CC[C@@H](O)c1ccc(OCCO)cc1)CCO
3. COC(=O)[C@@]1(Cc2ccccc2)[C@H]2c3cc(C(=O)N4CCCC4)n(Cc4ccc(C(F)(F)F)nc4)c3C[C@H]2CN1C(=O)c1ccccc1

OUT:
1. 0.36
2. -0.117
3. -0.269

---

Assay: A549 cell viability effects, profiling panel, calcein-AM fluorescence, 48 h, basal (AID 1162); further: test concentration not given here
Settings: higher = more signal
measurement_label: z-score
One number for each entry.

Look over these answered cases.
C=CC[C@]1(C(=O)NCc2ccccc2)COC(c2ccc(OCCCO)cc2)=N1	-0.555
CC(C)CNC(=O)[C@@H]1c2ccccc2C(=O)N(Cc2ccccc2)[C@H]1c1ccc(CO)cc1	-0.412
COc1ccc(CCNC(=O)[C@@]2(C)c3ccccc3C(=O)N(Cc3cc(C(F)(F)F)cc(C(F)(F)F)c3)[C@H]2c2ccc(CO)cc2)cc1	0.0571

Quick batch: z-score for everything below.
1. COCCOC(=O)N1C(=O)[C@@]2(c3cc(C#CCCO)ccc31)[C@H](C(=O)N1CCN(c3ncccn3)CC1)[C@H]1C(=O)O[C@H](c3ccccc3)[C@H](c3ccccc3)N1[C@@H]2c1ccc(O)cc1
2. C=C(CC1([C@@H](NP(=O)(c2ccccc2)c2ccccc2)[C@H]2C[C@@H]2CCN(C(=O)OCC)S(=O)(=O)c2ccc(C)cc2)CC1)c1ccccc1
3. COC(=O)[C@@]1(Cc2ccc(F)cc2)[C@H]2c3cc(C(=O)N(C)C)n(CCO)c3C[C@H]2CN1C(=O)c1ccccc1

OUT:
1: 1.61; 2: -2.02; 3: -0.371

IN: Which z-score is reported for this compound? `COCCCNC(=O)[C@@H]1c2ccccc2C(=O)N(Cc2cc(C(F)(F)F)cc(C(F)(F)F)c2)[C@H]1c1ccc(CO)cc1`
OUT: 0.301

---

Test system: Noggin (protein binding on small-molecule microarray)
Experiment: Noggin binders on small-molecule microarray, primary screen, biochemical, 635/667 nm fluorescence (AID 1095);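 further: score merges 667 nm feature fluorescence with signal to noise over triplicate slides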
Details: 635 nm fluorescence, higher = more signal
measurement_label: composite z-score
One number for each entry.

Quick batch: composite z-score for everything below.
1. COC(=O)[C@@]1(Cc2ccccc2)[C@H]2c3cc(C(=O)N4CCCC4)n(Cc4ccc(C(F)(F)F)nc4)c3C[C@H]2CN1C(=O)c1ccccc1
2. CCCCC(=C=CC[C@@H](O)c1cccc(OCCO)c1)C[C@@H](O)COCc1ccccc1
3. C=CCC(OC(C)=O)[C@@H]1[C@@H](N(Cc2ccc(-c3cccc(C(F)(F)F)c3)o2)C(=O)c2cccc3ccccc23)c2cc(OCCCO)ccc2N1C(=O)c1ccc2ccccc2c1 (some centres not stated)

OUT:
0.073
-0.0311
0.307

Quick batch: composite z-score for everything below.
1. COC(=O)Cn1c(C(=O)N(C)C)cc2c1C[C@H]1CN(C(=O)c3ccccc3)[C@@](Cc3ccc(OC)cc3)(C(=O)OC)[C@@H]21
2. C=CCC(OC(C)=O)[C@@H]1[C@@H](N(Cc2cc3ccccc3o2)C(=O)Cc2ccc(OC)cc2)c2cc(OCCCO)ccc2N1C(=O)Cc1ccc2ccccc2c1 (some centres not stated)
3. NC(=O)N1C(=O)C2C(C1=O)C1C=C(CCCO)C2C(c2ccc(CN3CCCC3)cc2)N1Cc1cccc(OC(F)(F)F)c1 (configuration not stated)
4. Cc1ccc(S[C@]2(C(=O)NCCN3CCOCC3)CC(=O)N(C3CCCCC3)[C@@H]2c2ccc(CO)cc2I)cc1

OUT:
[0.471, -0.507, 0.623, 0.824]
